# assayed target: human B1 (Homo sapiens)
# Construct: host or cells: CHO-K1
# Sequence (P46663 1-353): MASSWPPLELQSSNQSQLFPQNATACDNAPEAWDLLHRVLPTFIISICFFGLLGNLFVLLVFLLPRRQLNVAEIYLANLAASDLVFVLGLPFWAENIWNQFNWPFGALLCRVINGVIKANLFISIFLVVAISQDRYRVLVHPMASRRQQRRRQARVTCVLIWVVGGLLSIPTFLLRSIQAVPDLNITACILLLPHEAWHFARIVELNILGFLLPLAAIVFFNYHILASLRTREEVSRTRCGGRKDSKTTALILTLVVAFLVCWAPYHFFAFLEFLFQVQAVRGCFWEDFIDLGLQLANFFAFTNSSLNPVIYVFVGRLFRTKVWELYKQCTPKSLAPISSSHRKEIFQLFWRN
# experiment description: Calcium flux assay for Bradykinin B1 antagonist, CHO-K1 cell line expressing human B1
# Format: cell-based
# condition: CHO-K1 cells expressing human B1, agonist Lys-(Des-Arg)-Bradykinin, read-out: Potency (IC50 value against human B1)
Structures can show the parent of a compound that is named as a salt.
test readout: IC50

1. COc1cc(C)c(S(=O)(=O)N(Cc2cc(C(=O)N3CCN(CCN4CCCCC4)CC3)co2)C2CC2)c(C)c1 [Ex 109, trifluoroacetate]
0.1 to 1 µM
2. COc1cc(C)c(S(=O)(=O)N(Cc2nc(C(=O)N(C)Cc3ccc(CN4CCC(O)CC4)cc3)co2)C2CC2)c(C)c1 [Ex 181]
< 0.01 µM
3. COc1cc(C)c(S(=O)(=O)N(Cc2nc(C(=O)N(C)Cc3ccc(CN4CCCC4)cc3)co2)C2CC2)c(C)c1 [Ex 75]
< 0.01 µM
4. COc1cc(C)c(S(=O)(=O)N(Cc2noc(C(=O)N3CCN(CCCN4CCCC4)CC3)n2)C2CC2)c(C)c1 [Ex 317]
< 0.01 µM

Let's switch to this molecule now.
query: Quick one: IC50 for COc1cc(C)c(S(=O)(=O)N(C)Cc2nc(C(=O)N(C)Cc3ccc(CN4CCCC(O)C4)cc3)co2)c(C)c1 (centres unmarked) [Ex 179] ?
result: < 0.01 µM

====

Below, each entry is listed with its recorded IC50.
# assayed target: human B1 (Homo sapiens, UniProt P46663)
# experiment description: Calcium flux assay for Bradykinin B1 antagonist, CHO-K1 cell line expressing human B1
# condition: CHO-K1 cells expressing human B1, agonist Lys-(Des-Arg)-Bradykinin, read-out: Potency (IC50 value against human B1)
Counter-ions that a name gives are not always drawn.

1. COc1cc(C)c(S(=O)(=O)N(Cc2nc(C(=O)N3CCN(Cc4ccc(C(F)(F)F)nc4)CC3)co2)C2CC2)c(C)c1 [Ex 236, trifluoroacetate]
10 to 100 nM
2. COc1cc(C)c(S(=O)(=O)N(C)C(C)c2cc(C(=O)NCCc3ccc(C4=NCCN4)cc3)co2)c(C)c1 (stereo not drawn) [Ex 85]
100 to 1000 nM
3. COc1cc(C)c(S(=O)(=O)N(Cc2nc(C(=O)N(C)Cc3ccc(CN4CCCC4)nc3)co2)C2CC2)c(C)c1 [Ex 203]
< 10 nM
4. Cc1cc(O)cc(C)c1S(=O)(=O)N(C)Cc1cc(C(=O)N(C)CCc2ccc(C3=NCCN3)cc2)co1 [Ex 87, trifluoroacetate]
10 to 100 nM
5. COc1cc(C)c(S(=O)(=O)N(C)Cc2cc(C(=O)N(C)CCc3ccc(C4=NCCN4)cc3)c(C)o2)c(C)c1 [Ex 59]
100 to 1000 nM

# evaluate next
query: Could you share which IC50 value was measured for COc1cc(C)c(S(=O)(=O)N(Cc2nc(C(=O)N(C)CCc3ccc(C4=NCCN4)cc3)co2)C2CC2)c(C)c1 [Ex 79] ?
result: < 10 nM
